- SYSTEM: T1, AFP p26 (human, UniProt P02771 381-609)
- T1 construct: The construct used is not described
- T1 sequence: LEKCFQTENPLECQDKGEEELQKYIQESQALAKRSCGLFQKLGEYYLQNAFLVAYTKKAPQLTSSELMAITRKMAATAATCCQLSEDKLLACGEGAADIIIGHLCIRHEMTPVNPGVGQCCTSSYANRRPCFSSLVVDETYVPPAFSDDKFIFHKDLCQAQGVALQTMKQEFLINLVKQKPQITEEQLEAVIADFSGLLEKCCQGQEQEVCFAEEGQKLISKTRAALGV
- EXPERIMENT SUMMARY: phage ELISA, A450 target/A450 IgG1-Fc
Below, each of the binders is paired with its reported ELISA_avg value.
Write down the numeric answer in ratio and omit the unit.

Here are 4 binders together with their reported answers.
### Prompt # query: ELISA_avg of entry SEQ ID NO 859 (designed binder) MGSWVLFKQDLAMIKQRLEALGGSEAELAMFEYDIAWFEHMLQYYKGKGNPEVEALRKEAAAIRDELQAYRHN
### Response 29.7

### Prompt # query: ELISA_avg of entry SEQ ID NO 823 (designed binder) MGSWAYFKGQLAYIKSGLEALGGSEAELAYFELRIAYFEHWLQNYKGKGNPEVEALRKEAAAIRDELQAYRHN
### Response 11.4

### Prompt # query: ELISA_avg of entry SEQ ID NO 779 (designed binder) MGSWSEFFKRLEAIDRRLWALGGSEAELAAFEKEIAAFESELQAYKGKGNPEVEELREHAAHIRVWLQAYRHN
### Response 30.2

### Prompt # query: ELISA_avg of entry SEQ ID NO 810 (designed binder) MGSWSEFTDRLFAIEDRLLALGGSEAELAAFEKEIAAFESELQAYKGKGNPEVEDLRMHAASIRLWLQAYRHN
### Response 25.4

More entries:
### Prompt # query: ELISA_avg of entry SEQ ID NO 778 (designed binder) MGSWTEFQNRLNAIDHRLWALGGSEAELAAFEKEIAAFESELQAYKGKGNPEVESLREHAAKIRVWLQAYRHN
### Response 30.5
